Reference source: patent US4681887A

Biological target: D-2 receptors (Rattus norvegicus, UniProt P61169)
Construct: Hannover Wistar rats were decapitated and the striatum from their cortex was prepared
Sequence (P61169 whole entry): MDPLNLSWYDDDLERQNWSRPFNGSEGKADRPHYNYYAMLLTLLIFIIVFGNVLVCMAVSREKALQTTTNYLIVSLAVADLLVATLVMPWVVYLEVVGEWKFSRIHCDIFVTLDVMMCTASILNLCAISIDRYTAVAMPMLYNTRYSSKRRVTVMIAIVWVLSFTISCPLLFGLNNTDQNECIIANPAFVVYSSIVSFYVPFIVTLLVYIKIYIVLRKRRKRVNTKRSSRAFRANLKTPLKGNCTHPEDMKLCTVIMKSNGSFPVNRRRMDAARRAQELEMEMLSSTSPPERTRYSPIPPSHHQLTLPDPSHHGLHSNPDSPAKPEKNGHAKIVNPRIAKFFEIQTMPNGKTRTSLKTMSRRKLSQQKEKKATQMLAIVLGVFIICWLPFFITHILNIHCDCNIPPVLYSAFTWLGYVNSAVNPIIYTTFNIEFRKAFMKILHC
Test: D-2 receptor binding (3H-spiroperidol, rat striatum)

Molecule	Target Of Assay	Unit	IC50
CN1C[C@H](CO)C=C2c3cccc4[nH]c(Br)c(c34)C[C@H]21.O=C(O)/C=C\C(=O)O [2-Bromolysergol maleate]	D-2 receptors (Rattus norvegicus, UniProt P61169)	nM	76.5
CN1C[C@H](CO)C=C2c3cccc4[nH]c(Cl)c(c34)C[C@H]21.O=C(O)/C=C\C(=O)O [2-Chlorolysergol maleate]	D-2 receptors (Rattus norvegicus, UniProt P61169)	nM	5.3

###

Target: α1-adrenergic receptor
Assay: α1-adrenergic receptor binding (3H-prazosine, rat cortex)
Details: 3H-prazosine, rat cortex, 23° C., 30 minutes
Outcome Measure: IC50 (nM)

Compound	Target Of Assay	Unit	Number
CN1C[C@H](CO)C=C2c3cccc4[nH]c(Br)c(c34)C[C@H]21.O=C(O)/C=C\C(=O)O [2-Bromolysergol maleate]	α1-adrenergic receptor	nM	24.1
CN1C[C@H](CO)C=C2c3cccc4[nH]c(Cl)c(c34)C[C@H]21.O=C(O)/C=C\C(=O)O [2-Chlorolysergol maleate]	α1-adrenergic receptor	nM	45.4
CN(C)CCCN1c2ccccc2Sc2ccc(Cl)cc21 [Chloropromazine, reference compound]	α1-adrenergic receptor	nM	15.8
